system: ECU; assay: qHTS profiling for inhibitors of Plasmodium falciparum proliferation (AID 504749); also: nearly all actives have a fitted effect of over 60% in size; conditions: P. falciparum in erythrocytes, SYBR Green DNA, 72 h; series mostly up to 28.7 µM
Inconclusive results are not listed. The source made the active and inactive calls. Calls follow the shape of the dose curve; as a rule, active = well fitted inhibition curve with a large enough effect; inconclusive = small, poorly fitted or top-dose-only effect; inactive = flat fitted curve, though single readings scatter.
Labels: 1.0 for active, 0.0 for inactive

- COc1ccc2c3c1O[C@H]1C[C@@H](O)C=C[C@@]31CCN(C)C2: 0.0
- CCCCCCCC(=O)O: 0.0
- CCCCCC(CC)COC(=O)CC(C(=O)OCC(CC)CCCC)S(=O)(=O)O (stereo unspecified): 0.0
- COC(=O)[C@H]1[C@H]2C[C@@H]3c4[nH]c5ccccc5c4CCN3C[C@H]2C[C@@H](OC(=O)c2cc(OC)c(OC)c(OC)c2)[C@@H]1OC: 1.0
- Cc1cc(C(=O)NNCc2ccccc2)no1: 0.0
- CCCCC(C)(O)C/C=C/[C@H]1[C@H](O)CC(=O)[C@@H]1CCCCCCC(=O)OC (stereo partly specified): 0.0
- CCCC(=O)O[C@]1(C(=O)CCl)[C@H](C)C[C@@H]2[C@H]3CCC4=CC(=O)C=C[C@]4(C)[C@@]3(F)C(=O)C[C@@]21C: 1.0
- CC(O)CO (stereo unspecified): 0.0
- O=C(COc1ccc(Cl)cc1)OCCNC12CC3CC(CC(C3)C1)C2: 0.0
- CC(C)=O: 0.0
- O=C(Nc1cccc(C(F)(F)F)c1)c1cc(Br)cc(Br)c1O: 1.0

----------
assay: Identifying Small Molecule Inhibitors of Pancreatic Cancer Stem Cells (SN12C, Spheroid) (AID 1259360); conditions: SN12C spheroid viability; series mostly up to 46.1 µM
Inconclusive results are not listed. Activity calls are given as the source filed them. The call rests on the fitted dose curve; in most records, active means well fitted cell-killing curve with a large enough effect; inconclusive means small, poorly fitted or top-dose-only effect, or effect the other way; inactive means flat fitted curve, though single readings scatter.
Labels: class 1 for active, class 0 for inactive

* CCC1(Cc2ccc(N)cc2)CCC(=O)NC1=O (stereo not drawn) | class 0
* C[C@@H]1CCN(C(=O)CC#N)C[C@@H]1N(C)c1ncnc2[nH]ccc12 | class 0
* CN(NC(=O)CC(=O)NN(C)C(=S)c1ccccc1)C(=S)c1ccccc1 | class 1
* CCOc1cc2ncc(C#N)c(Nc3ccc(OCc4ccccn4)c(Cl)c3)c2cc1NC(=O)/C=C/CN(C)C | class 1
* CC[C@@H](C(=O)O)C1CC[C@H](C)C([C@@H](C)[C@H](O)[C@H](C)C(=O)[C@H](CC)C2O[C@]3(C=C[C@@H](O)[C@]4(CC[C@@](C)(C5CC[C@](O)(CC)[C@H](C)O5)O4)O3)[C@H](C)C[C@@H]2C)O1 (stereo partly drawn) | class 1
* O=C(O)CC/C=C\CC[C@H]1[C@@H](N2CCCCC2)[C@@H](O)C[C@@H]1OCc1ccc(-c2ccccc2)cc1 | class 0
* NC(=O)Nc1cc(-c2ccc(CN3CCOCC3)c(F)c2)sc1C(=O)N[C@H]1CCCNC1 | class 1
* CCCCCCCCCCCCCCCCCCOP(=O)([O-])OC1CC[N+](C)(C)CC1 | class 0

----------
assay: Cell Viability - Mesenchymal (AID 546); conditions: mesenchymal cells viability, qHTS; at 91.7 µM (top of the series);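 also: cells exposed to compound for 40 hours before reading; 0% = DMSO only and -100% = 100 µM tamoxifen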
Results filed as inconclusive are left out.
molecules and their reported activity change, negative = cytotoxicity
parameterMeasured: activity change, negative = cytotoxicity (%)

• CCOC(C)=O = 10.1
• CC(C)=O = -1.45
• O=CCCCC=O = -29.7
• O=C(O)CCC(=O)C(=O)O = 6.49
• CCCCCCCC/C=C\CCCCCCCC(=O)O = 16.2
• Nc1ccn([C@H]2CS[C@@H](CO)O2)c(=O)n1 = 7.61
• CCOc1ccc2c(c1)C(C)=CC(C)(C)N2 = 9.89
• CC1=C(/C=C/C(C)=C/C=C/C(C)=C/CO)C(C)(C)CCC1 = -3.42

----------
tested on: C33A; assay: Primary qHTS to identify gynecologic anti-cancer compounds using libraries of approved drugs and bioactive compounds (AID 1345084); conditions: Gynecologic cancer cell panel viability, ATPlite luminescence, 48 h; series mostly up to 57.5 µM; also: % is scaled to controls: 0 for no effect and ±100 for the full control effect; nearly all actives have a fitted effect of over 55% in size
Inconclusive results are not listed. Activity calls are given as the source filed them. Calls follow the shape of the dose curve; as a rule, active = well fitted cell-killing curve with a large enough effect; inconclusive = small, poorly fitted or top-dose-only effect, or effect the other way; inactive = flat fitted curve, though single readings scatter.
parameterMeasured: activity change, negative = cytotoxicity

* CC(O)(CC(=O)O)CC(=O)O[C@@H]1[C@@H](O)[C@H](OCCc2ccccc2)O[C@H](CO)[C@H]1O (stereo partly specified) | inactive
* CC(C)(O)C1CCC2(C)C3C(O)C4C(C13)C42CO (stereo unspecified) | inactive
* CC1(CO)CC[C@]2(C(=O)O[C@@H]3O[C@H](CO)[C@@H](O)[C@H](O)[C@H]3O)CC[C@]3(C)C(=CCC4[C@@]5(C)C[C@H](O)[C@H](O[C@@H]6OC[C@@H](O)[C@H](O)[C@H]6O)[C@@](C)(CO)C5CC[C@]43C)C2C1 (stereo partly specified) | 5.37% [at 11.6 µM] (inactive)
* O=C(O)C[C@@H](NC(=O)c1cc(-c2ccc(-c3ccncc3)cc2)cs1)c1ccccc1 | inactive
* CC1(C)CC2C3=CCC4C5(C)CCC(OC6OC(C(=O)O)C(O)C(O)C6OC6OC(CO)C(O)C(O)C6OC6OC(CO)C(O)C(O)C6O)C(C)(CO)C5CCC4(C)C3(C)CCC2(C)C(OC2OCC(O)C(OC3OC(CO)C(O)C(O)C3O)C2O)C1O (stereo unspecified) | 8.44% [at 6.55 µM] (inactive)
* C=C(C)[C@@H](C)[C@H]1O[C@]23C[C@]4(CO2)C(CCC2[C@@]5(C)CC[C@H](O[C@@H]6OC[C@H](O)[C@H](O[C@@H]7O[C@H](CO)[C@@H](O)[C@H](O)[C@H]7O)[C@H]6O[C@@H]6O[C@@H](CO)[C@H](O)[C@H]6O)C(C)(C)C5CC[C@]24C)C3[C@@](C)(O)[C@@H]1OC(C)=O (stereo partly specified) | 0.663% [at 11.6 µM] (inactive)

----------
test system: CASKI; test: Primary qHTS to identify gynecologic anti-cancer compounds using libraries of approved drugs and bioactive compounds (AID 1345084); details: Gynecologic cancer cell panel viability, ATPlite luminescence, 48 h; series mostly up to 57.5 µM; also: % is scaled to controls: 0 for no effect and ±100 for the full control effect; nearly all actives have a fitted effect of over 55% in size
Inconclusive results are not listed. Activity calls are given as the source filed them. Calls follow the shape of the dose curve; as a rule, active = well fitted cell-killing curve with a large enough effect; inconclusive = small, poorly fitted or top-dose-only effect, or effect the other way; inactive = flat fitted curve, though single readings scatter.
parameterMeasured: activity change, negative = cytotoxicity

* COc1cc(/C=C/C(=O)OC(C)(C)C(OC2OC(CO)C(O)C(O)C2O)C(=O)OCc2ccc(OC3OC(CO)C(O)C(O)C3O)cc2)ccc1O (stereo not drawn) | inactive
* C=C1C(O[C@@H]2O[C@H](CO)[C@@H](O)[C@H](O)[C@@H]2O)CC2C(C)(C)C(O)CCC2(C)C1CC/C(C)=C\CO (stereo partly drawn) | inactive
* COC(=O)C1=CO[C@@H](O[C@@H]2O[C@H](CO[C@@H]3O[C@H](COC(=O)/C=C/c4ccc(O)cc4)[C@@H](O)[C@H](O)[C@H]3O)[C@@H](O)[C@H](O)[C@H]2O)[C@@H]2C(CO)=CC[C@H]12 | inactive
* c1ccc(C(OC2CCN(CCCc3nn[nH]n3)CC2)c2ccccc2)cc1 | inactive
* C=C(C(=O)OC)C1CCC2(C)C(O[C@@H]3O[C@H](CO)[C@@H](O)[C@H](O)[C@H]3O)CC(=O)C(C)C2C1O (stereo partly drawn) | inactive
* COc1ccccc1-n1c(SCC(=O)Nc2nc3ccc(C)cc3s2)nc2c(c1=O)SCC2 | inactive
* CC(/C=C/C1(O)C(C)(C)CC(O)CC1(C)O)OC1OC(CO)C(O)C(O)C1O (stereo not drawn) | inactive
* O=C(CCCCc1ccc2ccccc2c1)C(F)(F)F | inactive

----------
system: ATS189; assay: qHTS profiling for inhibitors of Plasmodium falciparum proliferation (AID 504749); also: nearly all actives have a fitted effect of over 60% in size; conditions: P. falciparum in erythrocytes, SYBR Green DNA, 72 h; series mostly up to 28.7 µM
Records with an inconclusive call do not appear. Active and inactive are the calls of the source. The call rests on the fitted dose curve; in most records, active means well fitted inhibition curve with a large enough effect; inconclusive means small, poorly fitted or top-dose-only effect; inactive means flat fitted curve, though single readings scatter.
Labels: Yes = active, No = inactive

* CC1=C(/C=C/C(C)=C/C=C/C(C)=C/C=C/C=C(C)/C=C/C=C(C)/C=C/C2=C(C)CCCC2(C)C)C(C)(C)CCC1 | No
* O=C(O)c1cc(O)c2c(c1)[O][Bi][O]2 | No
* COC(=O)CCC(=O)CN | No
* COC(=O)[C@H]1[C@H]2CC3c4[nH]c5ccccc5c4CCN3C[C@@H]2CC[C@@H]1O (some centres not stated) | No
* CC[C@@]1(O)C(=O)OCc2c1cc1n(c2=O)Cc2cc3c([N+](=O)[O-])cccc3nc2-1 | Yes
* O=C(O)CN(CCN(CC(=O)O)CC(=O)O)CC(=O)O | No
* Oc1cc(O)c2c(c1)OC(c1ccc(O)c(O)c1)C(O)C2 (configuration not stated) | No
* CC1(C)S[C@@H]2[C@H](NC(=O)[C@@H](NC(=O)N3CCNC3=O)c3ccccc3)C(=O)N2[C@H]1C(=O)O | No
* Cc1ccccc1 | No
* CC(C)(C)C(=O)OCOC(=O)[C@@H]1N2C(=O)[C@@H](N=CN3CCCCCC3)[C@H]2SC1(C)C | No
* CC1=C(/C=C/C(C)=C/C=C/C(C)=C/C=C/C=C(C)/C=C/C=C(C)/C=C/C2=C(C)C(=O)CCC2(C)C)C(C)(C)CCC1=O | No
* C=CCSSSCC=C | No
* O=S(=O)(O)O | No
* CC(O)CO (configuration not stated) | No
* Cc1c(C)c2c(c(C)c1O)CC[C@@](C)(CCC[C@@H](C)CCC[C@@H](C)CCCC(C)C)O2 | No
* O=S(=O)(O)c1cc(O)c2c(N=Nc3ccc(Nc4ccccc4)c4c(S(=O)(=O)O)cccc34)cc(S(=O)(=O)O)cc2c1 | No
* C[C@]12O[C@H](C[C@]1(O)CO)n1c3ccccc3c3c4c(c5c6ccccc6n2c5c31)CNC4=O | Yes
* C#CCOc1ccc2c(C)cc(=O)oc2c1 | No
* Cc1cn([C@H]2C[C@H](O)[C@@H](CO)O2)c(=O)[nH]c1=O | No
* CC(=O)Oc1c(C)cc(OCC(O)CNC(C)C)c(C)c1C (configuration not stated) | No
* CCCCCCCCCCCCCCCC(=O)OCC(COC(=O)CCCCCCCCCCCCCCC)OC(=O)CCCCCCCCCCCCCCC | No
* COC(=O)[C@H]1[C@H]2C[C@@H]3c4[nH]c5ccccc5c4CCN3C[C@H]2C[C@@H](OC(=O)c2cc(OC)c(OC)c(OC)c2)[C@@H]1OC | Yes
* CCNC(=O)[C@@H]1CCCN1C(=O)[C@H](CCCN=C(N)N)NC(=O)[C@H](CC(C)C)NC(=O)[C@@H](Cc1c[nH]c2ccccc12)NC(=O)[C@H](Cc1ccc(O)cc1)NC(=O)[C@H](CO)NC(=O)[C@H](Cc1c[nH]c2ccccc12)NC(=O)[C@H](Cc1cnc[nH]1)NC(=O)[C@@H]1CCC(=O)N1 | Yes
* CCCCCCC(O)C/C=C/CCCCCCCC(=O)O (configuration not stated) | No
* CCCC(=O)Nc1ncnc2c1ncn2C1OC2COP(=O)(O)OC2C1OC(=O)CCC (configuration not stated) | No
* Cc1c(C)c2c(c(C)c1O)CC[C@@](C)(CCC[C@H](C)CCC[C@H](C)CCCC(C)C)O2 | No
* O=S(=O)(O)c1ccc2c(N=Nc3ccc(S(=O)(=O)O)c4ccccc34)c(O)c(S(=O)(=O)O)cc2c1 | No
* CCCCC(C)(O)C/C=C/[C@H]1[C@H](O)CC(=O)[C@@H]1CCCCCCC(=O)OC (some centres not stated) | No
* CC1(C)C(C=C(Cl)Cl)C1C(=O)OCc1cccc(Oc2ccccc2)c1 (configuration not stated) | No
* CCOC(C)=O | No
* CO[C@H]1C[C@@H]2CC[C@@H](C)[C@@](O)(O2)C(=O)C(=O)N2CCCC[C@H]2C(=O)O[C@H]([C@H](C)C[C@@H]2CC[C@@H](OCCO)[C@H](OC)C2)CC(=O)[C@H](C)/C=C(\C)[C@@H](O)[C@@H](OC)C(=O)[C@H](C)C[C@H](C)/C=C/C=C/C=C/1C | Yes
* CCCCCCCCCCCC[n+]1ccc2ccccc2c1 | Yes
